# ASSAY COMMENT: self-splicing fitness, log relative to wild type (ln ratio); higher = more splicing; Tetrahymena group I intron in knt gene, E. coli kanamycin selection, DiMSum; sequences stand for … in CUCUCU…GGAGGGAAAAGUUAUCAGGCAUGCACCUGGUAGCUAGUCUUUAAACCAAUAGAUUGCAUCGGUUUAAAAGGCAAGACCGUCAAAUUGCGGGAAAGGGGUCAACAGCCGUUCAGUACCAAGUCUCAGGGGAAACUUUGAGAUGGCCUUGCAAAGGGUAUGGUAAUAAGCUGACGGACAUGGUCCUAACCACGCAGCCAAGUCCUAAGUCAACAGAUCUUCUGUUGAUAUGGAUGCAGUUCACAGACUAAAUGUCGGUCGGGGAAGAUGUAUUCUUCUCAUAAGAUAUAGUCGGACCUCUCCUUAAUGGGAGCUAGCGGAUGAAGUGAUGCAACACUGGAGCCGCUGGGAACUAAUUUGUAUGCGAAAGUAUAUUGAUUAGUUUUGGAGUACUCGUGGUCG;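 also: selection with 25 µg/mL kanamycin versus none on LB agar overnight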
# CONDITION SUMMARY: 37 °C
Would you mind labelling by self-splicing fitness (ln)? At or over -0.5 is Yes, under is No.

UUACAGCAAUAUUACGGGAA : Yes
GGUCAGCAAUAUUACGUUAA : Yes
GUCUAGCAAUAUUACGGCCA : No
UGCGAGCAAUAUUACGCUCG : No
UACAAGCAAUAUUACGUGGU : No
CAAUAGCAAUAUUACGGCAA : No

For the next question, use this sequence.
QUERY: Record CCCGAGCAAUAUUACGAAGG ; criterion: self-splicing fitness (ln) no lower than -0.5. Met?
RESULT: No

----------
# ASSAY COMMENT: self-splicing fitness, log relative to wild type (ln ratio); higher = more splicing; Tetrahymena group I intron in knt gene, E. coli kanamycin selection, DiMSum; sequences stand for … in CUCUCU…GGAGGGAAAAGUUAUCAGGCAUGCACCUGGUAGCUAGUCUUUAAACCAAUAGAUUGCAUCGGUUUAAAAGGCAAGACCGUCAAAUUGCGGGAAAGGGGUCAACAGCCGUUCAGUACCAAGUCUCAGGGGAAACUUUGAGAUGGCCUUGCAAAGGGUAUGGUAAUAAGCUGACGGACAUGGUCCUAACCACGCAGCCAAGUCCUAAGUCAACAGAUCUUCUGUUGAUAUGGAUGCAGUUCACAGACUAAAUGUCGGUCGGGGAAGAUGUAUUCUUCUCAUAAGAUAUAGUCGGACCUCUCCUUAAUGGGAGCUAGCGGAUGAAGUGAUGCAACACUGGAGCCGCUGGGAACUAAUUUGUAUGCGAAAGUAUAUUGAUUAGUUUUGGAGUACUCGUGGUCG
# CONDITION SUMMARY: 37 °C
VALUE TYPE: self-splicing fitness (ln)
A bare number is all that is needed in reply.

Example entries and their recorded answers appear below.
AGUCAGCAAUAUUACGCGAC : -3.14
CUCCAGCAAUAUUACGUGAA : -0.328
UAGCAGCAAUAUUACGCGCA : -0.487
UGGCAGCAAUAUUACGUGUC : -2.17
AGAAAGCAAUAUUACGUAGA : -1.52
AUACAGCAAUAUUACGCGAA : -0.301
UACGAGCAAUAUUACGUAUA : -0.839
GAUAAGCAAUAUUACGCCGC : -1.99

QUERY: Any idea what its self-splicing fitness (ln) is? The sequence is UCAAAGCAAUAUUACGCUAA
RESULT: -2.87

QUERY: Please give the measured self-splicing fitness (ln) for this sequence: AUGCAGCAAUAUUACGUAUC
RESULT: -2.76

----------
# ASSAY COMMENT: self-splicing fitness, log relative to wild type (ln ratio); higher = more splicing; Tetrahymena group I intron in knt gene, E. coli kanamycin selection, DiMSum; sequences stand for … in CUCUCU…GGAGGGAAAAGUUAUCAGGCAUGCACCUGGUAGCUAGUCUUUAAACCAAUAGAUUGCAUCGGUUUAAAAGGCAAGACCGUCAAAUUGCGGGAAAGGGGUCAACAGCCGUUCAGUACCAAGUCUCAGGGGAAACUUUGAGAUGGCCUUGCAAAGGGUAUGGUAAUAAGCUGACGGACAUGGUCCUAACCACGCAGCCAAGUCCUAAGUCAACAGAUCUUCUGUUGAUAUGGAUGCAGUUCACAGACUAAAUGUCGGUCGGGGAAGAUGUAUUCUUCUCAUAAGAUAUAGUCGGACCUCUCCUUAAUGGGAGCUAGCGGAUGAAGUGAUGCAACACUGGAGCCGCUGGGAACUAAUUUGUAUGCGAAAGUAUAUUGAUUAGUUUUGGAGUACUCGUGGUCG
# CONDITION SUMMARY: 37 °C
VALUE TYPE: self-splicing fitness (ln)
Could you keep your reply to the number by itself?

UAAAAGCAAUAUUACGUGAG : -0.622
UCGGAGCAAUAUUACGAAGU : -0.529
GCACAGCAAUAUUACGGAGA : -2.16
GGCCAGCAAUAUUACGGUUG : -0.166
CUGCAGCAAUAUUACGGAUU : -1.8

Next, consider the following sequence.
QUERY: What measured self-splicing fitness (ln) goes with GCGGAGCAAUAUUACGCGUG ?
RESULT: -1.85

----------
# ASSAY COMMENT: self-splicing fitness, log relative to wild type (ln ratio); higher = more splicing; Tetrahymena group I intron in knt gene, E. coli kanamycin selection, DiMSum; sequences stand for … in CUCUCU…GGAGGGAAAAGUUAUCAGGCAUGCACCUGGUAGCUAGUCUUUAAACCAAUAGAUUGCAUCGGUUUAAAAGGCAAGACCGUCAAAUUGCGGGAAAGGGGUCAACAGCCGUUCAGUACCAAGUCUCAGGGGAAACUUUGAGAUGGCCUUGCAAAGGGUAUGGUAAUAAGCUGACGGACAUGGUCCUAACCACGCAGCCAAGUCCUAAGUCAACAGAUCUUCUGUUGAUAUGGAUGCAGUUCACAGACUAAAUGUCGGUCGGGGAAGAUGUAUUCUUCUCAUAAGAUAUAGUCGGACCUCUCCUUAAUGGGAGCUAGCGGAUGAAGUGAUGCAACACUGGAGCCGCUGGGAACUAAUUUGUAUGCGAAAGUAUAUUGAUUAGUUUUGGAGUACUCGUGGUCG
# CONDITION SUMMARY: 37 °C
Tag: satisfied if measured self-splicing fitness (ln) is not below -1, not satisfied if it is.

GGUUAGCAAUAUUACGUGCG : satisfied

QUERY: Is it the case that UUGGAGCAAUAUUACGUACA has self-splicing fitness (ln) reaching or exceeding -1?
RESULT: satisfied

QUERY: Hello, I need to know if CGAAAGCAAUAUUACGGGCC has measured self-splicing fitness (ln) not below -1. Thanks!
RESULT: not satisfied

QUERY: Test whether the sequence UAUAAGCAAUAUUACGACCA records self-splicing fitness (ln) of -1 or higher.
RESULT: satisfied

QUERY: Textbook exercise: given the entry CUUGAGCAAUAUUACGCACG , state whether its self-splicing fitness (ln) is greater than or equal to -1.
RESULT: not satisfied

QUERY: Confirm if self-splicing fitness (ln) reported for the sequence AUAGAGCAAUAUUACGUGCC is -1 or above.
RESULT: not satisfied

QUERY: Hi, just wondering whether CUACAGCAAUAUUACGUCCA shows self-splicing fitness (ln) of -1 or higher.
RESULT: not satisfied

----------
Parameter: self-splicing fitness (ln). Scope: all listed entries.
# ASSAY COMMENT: self-splicing fitness, log relative to wild type (ln ratio); higher = more splicing; Tetrahymena group I intron in knt gene, E. coli kanamycin selection, DiMSum; sequences stand for … in CUCUCU…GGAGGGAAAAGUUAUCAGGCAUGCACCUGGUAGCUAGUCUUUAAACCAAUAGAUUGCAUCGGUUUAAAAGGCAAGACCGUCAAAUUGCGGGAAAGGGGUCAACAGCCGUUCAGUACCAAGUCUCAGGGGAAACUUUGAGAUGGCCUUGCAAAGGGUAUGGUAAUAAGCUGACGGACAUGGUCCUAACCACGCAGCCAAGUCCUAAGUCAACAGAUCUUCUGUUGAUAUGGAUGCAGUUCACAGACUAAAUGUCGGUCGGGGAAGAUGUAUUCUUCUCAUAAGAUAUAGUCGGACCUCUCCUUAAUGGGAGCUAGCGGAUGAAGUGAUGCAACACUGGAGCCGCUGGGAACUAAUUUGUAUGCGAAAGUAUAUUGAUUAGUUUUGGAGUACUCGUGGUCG
# CONDITION SUMMARY: 30 °C
Write no unit; give the number alone.

For orientation, consider the following solved cases.
GCGCAGCAAUAUUACGAUUU : -1.07
GCUGAGCAAUAUUACGCUCG : -2.7
CCACAGCAAUAUUACGUCAU : -3.67
AGUCAGCAAUAUUACGGCUA : -0.605
UCCUAGCAAUAUUACGGCGG : -3.94
ACUAAGCAAUAUUACGACGU : -0.322

Please examine the following record next.
QUERY: # get_value(readout='self-splicing fitness (ln)', item= AUUCAGCAAUAUUACGGGUA )
RESULT: -1.89
